Entry source: the Human Domainome abundance scans (Beltran et al. 2025)

B1: Transitional endoplasmic reticulum ATPase, residues 26 to 106; numbered along this chain, P55072 (parent)
chain: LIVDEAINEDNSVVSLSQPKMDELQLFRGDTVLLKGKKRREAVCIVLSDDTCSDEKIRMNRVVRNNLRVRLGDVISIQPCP

Variants of: B1
protocol.summary: abundance fitness (aPCA) (normalised: wild type 0, dead -1); higher = more abundant; growth selection in yeast, the domain comes from the species named
recorded.conditions: Homo sapiens
Attribute: abundance fitness

Example variants with recorded abundance fitness:
N60D: -0.077
D49E: -0.094
L67P: -0.789
E9F: -0.057
S17Q: -0.671

abundance fitness for "R39Q" ?
0.079

Consider the variant "G36Q" and give its measured abundance fitness.
-0.688
